- Test method notes: Phase 1 metabolic stability in human liver microsomes assessed as compound remaining at 10 uM measured for 1 hr by LC-MS/MS analysis
- Format: ADME
- Condition notes: read-out: Stability
Measured endpoint: remaining at 1 h, 10 µM

Input: # lookup: remaining at 1 h, 10 µM of O=C(O)c1cccc(-c2cccc(CCS)c2C(=O)O)c1
Output: > 90%

----------
- Test method notes: Cmax in Sprague-Dawley rat at 10 mg/kg, po administered via gavage measured under fed conditions by LC-MS/MS analysis
- Assay type: ADME, organism-based
- Parameters: dose 10 mg/kg, route oral
- Condition notes: in vivo
Measured endpoint: Cmax (ng/mL)
Could you give me the number in ng/mL? Just the number is fine.

Input: Quick one: Cmax for O=C(O)c1cccc(-c2cccc(CCS)c2C(=O)O)c1 ?
Output: 16200

----------
- Test method notes: Phase 1 metabolic stability in mouse liver microsomes assessed as compound remaining at 10 uM measured for 1 hr by LC-MS/MS analysis in absence of cofactors
- Type: ADME
- Condition notes: read-out: Stability
Measured endpoint: remaining at 1 h, 10 µM

Input: Which remaining at 1 h, 10 µM reading was recorded for the compound O=C(O)c1cccc(-c2cccc(CCS)c2C(=O)O)c1 ?
Output: > 90%

----------
- Test method notes: Half life in Sprague-Dawley rat at 1 mg/kg, iv administered as bolus injection measured under fasted conditions by LC-MS/MS analysis
- Assay type: ADME, organism-based
- Set-up: dose 1 mg/kg, route intravenous
- Condition notes: in vivo
Measured endpoint: half-life (min)
Please reply with the bare figure in min and do not write the unit itself.

Input: What value of half-life has been reported for the following compound? O=C(O)c1cccc(-c2cccc(CCS)c2C(=O)O)c1
Output: 195

----------
- Test method notes: Cmax in Sprague-Dawley rat sciatic nerve at 10 mg/kg, po administered as single dose measured per gm of tissue by LC-MS/MS analysis
- Type: ADME, organism-based
- Design: dose 10 mg/kg, route oral
Measured endpoint: Cmax (ng/g)
Give your result in ng/g as a bare value.

Input: What Cmax value was documented for this compound, O=C(O)c1cccc(-c2cccc(CCS)c2C(=O)O)c1 ?
Output: 203

----------
- Test method notes: Apparent volume of distribution in cynomolgus monkey at 5 mg/kg, po by LC-MS/MS analysis
- Type: ADME, organism-based, Macaca fascicularis
- Set-up: dose 5 mg/kg, route oral
- Condition notes: in vivo
Measured endpoint: Vd/F (L/kg)
The reply should contain only the number, in L/kg.

Input: // lookup Vd/F for O=C(O)c1cccc(-c2cccc(CCS)c2C(=O)O)c1
Output: 0.79

----------
- Test method notes: Apparent oral clearance in Sprague-Dawley rat at 10 mg/kg, po administered via gavage measured under fed conditions by LC-MS/MS analysis
- Type: ADME, organism-based
- Design: dose 10 mg/kg, route oral
- Condition notes: in vivo
Measured endpoint: CL/F (mL/min/kg)
Give just the number in mL/min/kg; leave the unit off.

Input: What measured CL/F goes with O=C(O)c1cccc(-c2cccc(CCS)c2C(=O)O)c1 ?
Output: 5

----------
- Test method notes: AUC(0 to last) in Sprague-Dawley rat at 1 mg/kg, po administered via gavage measured under fasted conditions by LC-MS/MS analysis
- Type: ADME, organism-based
- Parameters: time 0 - last, dose 1 mg/kg, route oral
- Condition notes: plasma
Measured endpoint: AUC(0-t)

Input: Which value of AUC(0-t) has been reported for O=C(O)c1cccc(-c2cccc(CCS)c2C(=O)O)c1 in the records?
Output: 2610 ng·h/mL

----------
- Test method notes: Half life in Sprague-Dawley rat at 1 mg/kg, po administered via gavage measured under fasted conditions by LC-MS/MS analysis
- Format: ADME, organism-based
- Parameters: dose 1 mg/kg, route oral
- Condition notes: in vivo
Measured endpoint: half-life (h)
Please give a number only; it is taken to be in h.

Input: # half-life lookup, item O=C(O)c1cccc(-c2cccc(CCS)c2C(=O)O)c1
Output: 3.72

----------
- Test method notes: AUC(0 to infinity) in Sprague-Dawley rat at 30 mg/kg, iv administered as bolus injection measured under fasted conditions by LC-MS/MS analysis
- Assay type: ADME, organism-based
- Design: time infinity, dose 30 mg/kg, route intravenous
- Condition notes: plasma
Measured endpoint: AUC(0-inf)
Number plus unit, in that order.

Input: // returns reported AUC(0-inf) for input O=C(O)c1cccc(-c2cccc(CCS)c2C(=O)O)c1
Output: 204 µg·h/mL

----------
- Test method notes: Half life in Sprague-Dawley rat at 10 mg/kg, po administered via gavage measured under fed conditions by LC-MS/MS analysis
- Assay type: ADME, organism-based
- Design: dose 10 mg/kg, route oral
- Condition notes: in vivo
Measured endpoint: half-life (h)
The figure you give is taken to be in h; do not add the unit.

Input: Which half-life is reported for this compound? O=C(O)c1cccc(-c2cccc(CCS)c2C(=O)O)c1
Output: 2.75

----------
- Test method notes: Volume of distribution in Sprague-Dawley rat at 0.1 mg/kg, iv administered as bolus injection measured under fasted conditions by LC-MS/MS analysis
- Type: ADME, organism-based
- Set-up: dose 0.1 mg/kg, route intravenous
- Condition notes: in vivo
Measured endpoint: Vd (L/kg)
Give the number; L/kg is assumed, so skip it.

Input: Value lookup for Vd; key = O=C(O)c1cccc(-c2cccc(CCS)c2C(=O)O)c1
Output: 0.2
